All values here come from ChEMBL document CHEMBL4689842.

Consider the following compounds; for each one, report its Population Healthy Nuclei (%).
test system: U2OS; assay: Multiplex assay against U2OS; assay type: toxicity, cell-based; details: human, 12 h, 1 µM, compound concentration 1 uM, replicate 1
Kindly provide the numeric value in % only, without the unit symbol.

For the record CC(C)(O)CNc1ncc(-c2ccnc(Nc3ccnc(Cl)c3)n2)c(CC2CC2)n1 , what value of Population Healthy Nuclei (%) is listed for U2OS?
71

Same thing, different compound: COc1cccc([C@@H](C)NCCCc2ccccc2Cl)c1.Cl [TECALCET HYDROCHLORIDE]
72

// repeat for CN1CCN(CCOc2cc(OC3CCOCC3)c3c(Nc4c(Cl)ccc5c4OCO5)ncnc3c2)CC1 [SARACATINIB] and report
69

And CN(C)C(=O)/C(C#N)=C/c1ccc(-c2nc3cnc4[nH]ccc4c3n2C2CCCCC2)o1 ?
69

What about COc1cc(-n2cnc3cc(-c4ccc(Cl)cc4)sc3c2=O)ccc1OCCN1CCCC1 ?
70

Please give the result for CN1CCC[C@@H]1CCO[C@](C)(c1ccccc1)c1ccc(Cl)cc1.O=C(O)/C=C/C(=O)O [CLEMASTINE FUMARATE] too.
72
